Test System: Melanin-concentrating hormone receptor 1 (Homo sapiens, UniProt Q99705)
Sequence (Q99705 whole entry): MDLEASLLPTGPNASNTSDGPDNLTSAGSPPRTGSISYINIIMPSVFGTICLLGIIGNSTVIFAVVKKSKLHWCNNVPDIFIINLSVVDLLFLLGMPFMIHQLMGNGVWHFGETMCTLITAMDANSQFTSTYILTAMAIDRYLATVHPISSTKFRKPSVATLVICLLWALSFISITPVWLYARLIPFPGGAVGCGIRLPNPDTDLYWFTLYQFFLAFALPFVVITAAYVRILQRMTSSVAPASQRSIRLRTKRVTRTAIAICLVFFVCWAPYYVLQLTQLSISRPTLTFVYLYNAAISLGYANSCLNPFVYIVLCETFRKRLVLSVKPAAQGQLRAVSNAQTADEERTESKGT
pKi: −log10 of the molar value.
Please note: Yes applies when pKi is 8 or greater, and No applies otherwise.

Q: Assess whether reported pKi for N#Cc1cccc([C@]23CC[C@@H](N(CCN4CC[C@@H](O)C4)C(=O)Nc4ccccc4)CC2C3)c1 (some centres not stated) sits at 8 or higher.
Ans: No

Q: API: above_or_equal(metric=pKi, cutoff=8) for item N#Cc1ccc(C2=CCC(N(CCN3CCCC3)C(=O)Nc3ccc(F)c(Cl)c3)CC2)s1 (configuration not stated)
Ans: Yes

Q: Check this compound for pKi at or above 8: CC(C)N(CCO)CCN(C(=O)Nc1cc(Cl)nc(Cl)c1)[C@@H]1CC[C@]2(c3cccc(C#N)c3)CC2C1 (some centres not stated)
Ans: Yes

Q: Quick check: does CC(C)N(CCN(C(=O)Nc1ccc(F)c(F)c1)[C@@H]1CC[C@]2(c3ccccc3)CC2C1)C(C)C (some centres not stated) have pKi greater than or equal to 8?
Ans: No

Q: Please tell me: is the compound CNC(=O)N1CCC(CN(C(=O)Nc2ccc(F)c(C(F)(F)F)c2)[C@@H]2CC[C@]3(c4cccc(C#N)c4)CC3C2)CC1 (some centres not stated) at or over 8 in terms of pKi?
Ans: No

Q: Entry CC(=O)N1CCC(CN(C(=O)Nc2ccc(F)c(Cl)c2)[C@@H]2CC[C@]3(c4cccc(C#N)c4)CC3C2)CC1 (some centres not stated) : is its pKi no less than 8?
Ans: No

Q: Entry CC(C)N(CCN(C(=O)Nc1cc(Cl)nc(Cl)c1)[C@@H]1CC[C@]2(c3cccc(C#N)c3)CC2C1)C(C)C (stereo in doubt; 13) : is its pKi no less than 8?
Ans: Yes

Q: Please indicate if the recorded pKi for N#Cc1cccc([C@]23CC[C@@H](N(CCN4CCC(O)CC4)C(=O)Nc4ccc(F)c(Cl)c4)CC2C3)c1 (some centres not stated) meets or exceeds 8.
Ans: No

Q: Quick check: does COc1cccc(NC(=O)N(CCN2CC[C@@H](O)C2)[C@@H]2CC[C@]3(c4cccc(C#N)c4)CC3C2)c1 (some centres not stated) have pKi greater than or equal to 8?
Ans: No

Q: pKi >= 8 for N#Cc1cccc([C@]23CC[C@@H](N(CCN4CC[C@@H](O)C4)C(=O)NC4CCCCC4)CC2C3)c1 (some centres not stated) ?
Ans: No

Q: Decide: pKi of CS(=O)(=O)N1CCC(CN(C(=O)Nc2ccc(F)c(F)c2)[C@@H]2CC[C@]3(c4cccc(C#N)c4)CC3C2)CC1 (some centres not stated) >= 8?
Ans: Yes

Q: Please check the record N#Cc1cccc([C@]23CC[C@@H](N(CCN4CC[C@@H](O)C4)C(=O)Nc4cccc(Cl)c4)CC2C3)c1 (some centres not stated) and state if its pKi is at or above 8.
Ans: No

Q: Hi, just wondering whether CC(C)N(CCN(C(=O)Nc1ccc(F)c(Cl)c1)[C@@H]1CC[C@]2(c3cccc(CNS(C)(=O)=O)c3)CC2C1)C(C)C (some centres not stated) shows pKi of 8 or higher.
Ans: No

Q: Is the recorded value of pKi equal to or greater than 8 for this compound? N#Cc1cccc([C@]23CC[C@@H](N(CCN4CC[C@@H](O)C4)C(=O)Nc4cccc([N+](=O)[O-])c4)CC2C3)c1 (some centres not stated)
Ans: No

Q: hey, is pKi for this one >= 8? N#Cc1cccc([C@]23CC[C@@H](N(CCN4CC[C@@H](O)C4)C(=O)Nc4ccc(F)cc4)CC2C3)c1 (some centres not stated)
Ans: No

Q: Reported pKi at or above 8? O=C(Nc1ccc(F)c(Cl)c1)N(CCN1CCCC1)C1CC=C(c2ccco2)CC1 (configuration not stated)
Ans: No

Q: Textbook exercise: given the entry CC(C)N(CCN(C(=O)Nc1cccc([N+](=O)[O-])c1)[C@@H]1CC[C@]2(c3cccc(C#N)c3)CC2C1)C(C)C (some centres not stated) , state whether its pKi is greater than or equal to 8.
Ans: Yes

Q: pKi >= 8 for O=C(Nc1ccc(F)c(Cl)c1)N(CCN1CCCC1)C1CC=C(c2cncnc2)CC1 (configuration not stated) ?
Ans: No

Q: Is reported pKi greater than or equal to 8 here: Cc1cc(C)cc(NC(=O)N(CCN2CC[C@@H](O)C2)[C@@H]2CC[C@]3(c4cccc(C#N)c4)CC3C2)c1 (some centres not stated)
Ans: No

Q: Could you please find out whether CC(C)N(CCN(C(=O)Nc1ccc(F)c(Cl)c1)[C@@H]1CC[C@]2(c3cccc(C#N)c3)CC2C1)[C@@H](C)CO (some centres not stated) has pKi that meets 8 or exceeds it?
Ans: Yes

Q: API: above_or_equal(metric=pKi, cutoff=8) for item CC(=O)NC1CCN(CCN(C(=O)Nc2ccc(F)c(Cl)c2)[C@@H]2CC[C@]3(c4cccc(C#N)c4)CC3C2)C1 (some centres not stated)
Ans: No

Q: Does the reported pKi for CC(C)NCCN(C(=O)Nc1cc(Cl)nc(Cl)c1)[C@@H]1CC[C@]2(c3cccc(C#N)c3)CC2C1 (some centres not stated) fall at or above the 8 mark?
Ans: Yes

Q: Textbook exercise: given the entry CC(C)N(CCN(C(=O)Nc1cc(F)cc(F)c1)[C@@H]1CC[C@]2(c3cccc(C#N)c3)CC2C1)C(C)C (some centres not stated) , state whether its pKi is greater than or equal to 8.
Ans: Yes

Q: Dear colleague, could you confirm whether N#Cc1cccc([C@]23CC[C@@H](N(CCNCCF)C(=O)Nc4cc(Cl)nc(Cl)c4)CC2C3)c1 (some centres not stated) has pKi at or above 8?
Ans: Yes

###

Test System: UniProt:Q8JZL2
Sequence (Q8JZL2 whole entry): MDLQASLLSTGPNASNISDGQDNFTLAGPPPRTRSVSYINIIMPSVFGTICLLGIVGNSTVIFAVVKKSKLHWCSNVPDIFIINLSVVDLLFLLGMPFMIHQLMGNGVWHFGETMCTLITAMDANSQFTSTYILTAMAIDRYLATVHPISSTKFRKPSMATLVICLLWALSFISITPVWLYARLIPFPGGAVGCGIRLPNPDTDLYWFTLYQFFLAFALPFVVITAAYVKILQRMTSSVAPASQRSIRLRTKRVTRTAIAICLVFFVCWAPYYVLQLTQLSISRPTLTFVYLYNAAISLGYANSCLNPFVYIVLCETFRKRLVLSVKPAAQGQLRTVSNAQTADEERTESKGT
Assay Name: Ex vivo displacement of [125I]S36057 binding from mouse brain MCHR1 at 30 mg/kg, po after 6 hrs
Assay type: functional, organism-based
Design: dose 30 mg/kg
Threshold check on Activity: strictly below 80% is yes (1); on or above 80% is no (0).

Q: Hello, I'm reviewing records and need to know if Activity of CC(C)N(CCN(C(=O)Nc1cc(Cl)nc(Cl)c1)[C@@H]1CC[C@]2(c3cccc(C#N)c3)CC2C1)C(C)C (stereo in doubt; 13) is below 80%. Could you check?
Ans: no (0)

Q: Just wondering, is Activity of CC(C)N(CCN(C(=O)Nc1ccc(F)c(Cl)c1)[C@@H]1CC[C@]2(c3cccc(C#N)c3)CC2C1)C(C)C (stereo partly specified) below 80%?
Ans: no (0)

Q: Quick check: does CC(=O)c1ccc(C2=CCC(N(CCN3CCCC3)C(=O)Nc3ccc(F)c(Cl)c3)CC2)s1 (stereo unspecified) have Activity under 80%?
Ans: yes (1)

Q: In plain terms, does CC1CC[C@@H](CO)N1CCN(C(=O)Nc1ccc(F)c(Cl)c1)[C@@H]1CC[C@]2(c3cccc(C#N)c3)CC2C1 (stereo partly specified) come in under 80% for Activity?
Ans: yes (1)

Q: Criterion: Activity strictly below 80%. Is it met by NCc1ncc(C2=CCC(N(CCN3CCCC3)C(=O)Nc3ccc(F)c(Cl)c3)CC2)s1 (stereo unspecified) ?
Ans: no (0)

Q: Consider CS(=O)(=O)N1CCC(CN(C(=O)Nc2cc(Cl)nc(Cl)c2)[C@@H]2CC[C@]3(c4cccc(CN)c4)CC3C2)CC1 (stereo partly specified) . Does its Activity lie strictly below 80%?
Ans: yes (1)

Q: Confirm or reject: Activity of CC(C)N(CCN(C(=O)Nc1cc(Cl)nc(Cl)c1)[C@@H]1CC[C@]2(c3cccc(C#N)c3)CC2C1)[C@@H](C)CO (stereo partly specified) lies strictly below 80%
Ans: no (0)

Q: Say whether its Activity is strictly beneath 80%. Entry: NCc1ccc(C2=CCC(N(CCN3CCCC3)C(=O)Nc3ccc(F)c(Cl)c3)CC2)s1 (stereo unspecified)
Ans: yes (1)

Q: Is Activity strictly under 80% for the entry O=C(Nc1ccc(F)c(Cl)c1)N(CCN1CCCC1)C1CC=C(c2cccnc2)CC1 (stereo unspecified) ?
Ans: yes (1)

Q: I wonder whether CN(C)Cc1cccc([C@]23CC[C@@H](N(CC4CCN(S(C)(=O)=O)CC4)C(=O)Nc4cc(Cl)nc(Cl)c4)CC2C3)c1 (stereo partly specified) has Activity below 80%. Can you tell?
Ans: yes (1)

Q: For CC(C)N(CCN(C(=O)Nc1ccc(F)c(Cl)c1)[C@@H]1CC[C@]2(c3cccc(C#N)c3)CC2C1)[C@@H](C)CO (stereo partly specified) , is the recorded Activity below the cut-off of 80%?
Ans: yes (1)

Q: Given N#Cc1ccc(C2=CCC(N(CCN3CCCC3)C(=O)Nc3ccc(F)c(Cl)c3)CC2)s1 (stereo unspecified) , is recorded Activity strictly lower than 80%?
Ans: no (0)

Q: Lab log: compare recorded Activity with 80%; is it strictly lower for CC(C)N(CCF)CCN(C(=O)Nc1cc(Cl)nc(Cl)c1)[C@@H]1CC[C@]2(c3cccc(C#N)c3)CC2C1 (stereo partly specified) ?
Ans: no (0)

Q: For CC(C)N(CCO)CCN(C(=O)Nc1ccc(F)c(Cl)c1)[C@@H]1CC[C@]2(c3cccc(C#N)c3)CC2C1 (stereo partly specified) , is the recorded Activity below the cut-off of 80%?
Ans: yes (1)
